target: C-C chemokine receptor type 5 (Homo sapiens); assay: Agonist activity at CCR5 (unknown origin)
Sequence (P51681 whole entry): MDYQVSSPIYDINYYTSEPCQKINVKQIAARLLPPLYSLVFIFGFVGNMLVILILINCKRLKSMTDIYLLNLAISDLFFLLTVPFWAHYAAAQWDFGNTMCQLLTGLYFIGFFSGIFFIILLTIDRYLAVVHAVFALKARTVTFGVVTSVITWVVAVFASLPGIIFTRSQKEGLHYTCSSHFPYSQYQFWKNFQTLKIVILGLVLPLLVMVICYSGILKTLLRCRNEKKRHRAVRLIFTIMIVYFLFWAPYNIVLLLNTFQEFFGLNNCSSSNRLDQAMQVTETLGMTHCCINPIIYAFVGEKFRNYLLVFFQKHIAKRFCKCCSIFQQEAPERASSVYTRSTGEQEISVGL
quantity-name: EC50

Req: Give me measured EC50, please, for this compound: CC1=CCC[C@H]1NC(=O)Nc1ccc(Cl)c(S(=O)(=O)[C@@]2(C)CCOC2)c1O
Resp: > 10 µM

---

Attribute: IC50
biological target: C-X-C chemokine receptor type 2 (Mus musculus, UniProt P35343); test: Antagonist activity at CXCR2 in C57 mouse whole blood assessed as inhibition of GROalpha-stimulated CD11b upregulation preincubated for 2 hr followed by GROalpha stimulation measured after 10 mins by FITC-staining based FACS analysis
Sequence (P35343 whole entry): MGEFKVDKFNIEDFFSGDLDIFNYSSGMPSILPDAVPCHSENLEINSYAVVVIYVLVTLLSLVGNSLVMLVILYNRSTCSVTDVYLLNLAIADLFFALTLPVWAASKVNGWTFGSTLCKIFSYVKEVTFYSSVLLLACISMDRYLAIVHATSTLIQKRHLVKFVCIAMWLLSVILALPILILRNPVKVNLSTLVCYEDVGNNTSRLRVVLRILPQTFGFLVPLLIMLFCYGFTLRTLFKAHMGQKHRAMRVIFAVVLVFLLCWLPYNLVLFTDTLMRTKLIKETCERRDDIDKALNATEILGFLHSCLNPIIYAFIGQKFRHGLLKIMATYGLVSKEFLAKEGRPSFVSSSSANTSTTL
Record the result as a number with its unit.

molecule: CC1=CCC[C@H]1NC(=O)Nc1ccc(Cl)c(S(=O)(=O)[C@@]2(C)CCOC2)c1O
target-system: C-X-C chemokine receptor type 2 (Mus musculus, UniProt P35343)
IC50: 5.9 nM

Req: Give me measured IC50, please, for this molecule: CC[C@@H](Nc1c(Nc2cccc(C(=O)N(C)C)c2O)c(=O)c1=O)c1ccc(C)o1 [NAVARIXIN ANHYDROUS]
Resp: 8.1 nM

---

molecular target: UniProt Q99788; experiment: Agonist activity at CMKLR1 (unknown origin)
Sequence (Q99788 whole entry): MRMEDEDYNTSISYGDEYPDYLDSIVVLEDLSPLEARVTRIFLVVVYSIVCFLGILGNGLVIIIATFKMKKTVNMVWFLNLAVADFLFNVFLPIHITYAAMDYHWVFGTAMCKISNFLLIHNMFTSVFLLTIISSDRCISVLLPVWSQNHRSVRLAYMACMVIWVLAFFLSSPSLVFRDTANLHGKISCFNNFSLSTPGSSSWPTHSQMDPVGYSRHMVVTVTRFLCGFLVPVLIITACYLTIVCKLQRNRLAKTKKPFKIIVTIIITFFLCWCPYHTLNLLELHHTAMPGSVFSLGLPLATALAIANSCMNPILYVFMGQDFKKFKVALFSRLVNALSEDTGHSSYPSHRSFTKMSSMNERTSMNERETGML
quantity-name: EC50

Req: Provide EC50, recorded with UniProt Q99788, of CC1=CCC[C@H]1NC(=O)Nc1ccc(Cl)c(S(=O)(=O)[C@@]2(C)CCOC2)c1O
Resp: > 10 µM

---

assay: Ratio of brain dose normalized AUC (0 to 7 hrs) to […] dose normalized AUC (0 to 7 hrs), Kp of the compound in Han-Wistar SOA rat model at 2 mg/kg administered via oral gavage by UPLC/MS/MS analysis; type: ADME, organism-based
# Kp >= 0.06 gives Y, anything below gives N

A selection of reference data follows.
structure: CC1=CCC[C@H]1NC(=O)Nc1ccc(Cl)c(S(=O)(=O)[C@@]2(C)CCOC2)c1O
qualitative-label: Y

structure: CC1=CCC[C@H]1NC(=O)Nc1ccc(C#N)c(S(=O)(=O)C(C)(C)C)c1O
qualitative-label: N

structure: CC1=CCC[C@H]1NC(=O)Nc1ccc(Cl)c(S(=O)(=O)C(C)(C)CF)c1O
qualitative-label: Y

structure: CC1=CCC[C@H]1NC(=O)Nc1ccc(Cl)c(S(=O)(=O)C(C)(C)C(F)(F)F)c1O
qualitative-label: Y

Req: I'd appreciate it if you could say whether CC1=CCC[C@H]1NC(=O)Nc1ccc(Cl)c(S(=O)(=O)[C@]2(C)CCOC2)c1O has Kp at least equal to 0.06.
Resp: Y

Req: I'd appreciate it if you could say whether CC1=CCC[C@H]1NC(=O)Nc1ccc(Cl)c(S(=O)(=O)[C@H]2C[C@H](N3CCCC3)C2)c1O has Kp at least equal to 0.06.
Resp: N

Req: I'd appreciate it if you could say whether CC1=CCC[C@H]1NC(=O)Nc1ccc(Cl)c(S(=O)(=O)C(C)(C)[C@H]2CCOC2)c1O has Kp at least equal to 0.06.
Resp: Y

---

assay: Efflux ratio of passive permeability in MDCK2-MDR1 cells transduced with BacMam2-BCRP at 3 uM after 90 mins by Transwell assay; assay type: ADME, cell-based, Canis lupus familiaris, MDCK-MDR1; settings: dog
quantity-name: efflux ratio at 1.5 h, 3 µM
I'd appreciate a reply containing only the number, no unit.

molecule: CC1=CCC[C@H]1NC(=O)Nc1ccc(Cl)c(S(=O)(=O)C2(F)CCOCC2)c1O
efflux ratio at 1.5 h, 3 µM: 6.2
--
molecule: CC1=CCC[C@H]1NC(=O)Nc1ccc(Cl)c(S(=O)(=O)[C@@H]2CC[C@@H](O)C2)c1O
efflux ratio at 1.5 h, 3 µM: 26.8
--
molecule: CC1=CCC[C@H]1NC(=O)Nc1ccc(Cl)c(S(=O)(=O)C2CCN(C3CCC3)CC2)c1O
efflux ratio at 1.5 h, 3 µM: 3.3
--
molecule: CC1=CCC[C@H]1NC(=O)Nc1ccc(Cl)c(S(=O)(=O)C2CCN(CCF)CC2)c1O
efflux ratio at 1.5 h, 3 µM: 7.3
--
molecule: CC1=CCC[C@H]1NC(=O)Nc1ccc(Cl)c(S(=O)(=O)C2(C)CCOC2)c1O (some centres undefined)
efflux ratio at 1.5 h, 3 µM: 3.8

Req: Give me measured efflux ratio at 1.5 h, 3 µM, please, for this molecule: CC1=CCC[C@H]1NC(=O)Nc1ccc(Cl)c(S(=O)(=O)[C@@]2(C)CCOC2)c1O
Resp: 2

Req: Give me measured efflux ratio at 1.5 h, 3 µM, please, for this molecule: CC1=CCC[C@H]1NC(=O)Nc1ccc(Cl)c(S(=O)(=O)C2(CF)CCOCC2)c1O
Resp: 18.7

---

molecular target: C-C chemokine receptor type 2 (Homo sapiens, UniProt P41597); assay: Agonist activity at CCR2 (unknown origin)
Sequence (P41597 whole entry): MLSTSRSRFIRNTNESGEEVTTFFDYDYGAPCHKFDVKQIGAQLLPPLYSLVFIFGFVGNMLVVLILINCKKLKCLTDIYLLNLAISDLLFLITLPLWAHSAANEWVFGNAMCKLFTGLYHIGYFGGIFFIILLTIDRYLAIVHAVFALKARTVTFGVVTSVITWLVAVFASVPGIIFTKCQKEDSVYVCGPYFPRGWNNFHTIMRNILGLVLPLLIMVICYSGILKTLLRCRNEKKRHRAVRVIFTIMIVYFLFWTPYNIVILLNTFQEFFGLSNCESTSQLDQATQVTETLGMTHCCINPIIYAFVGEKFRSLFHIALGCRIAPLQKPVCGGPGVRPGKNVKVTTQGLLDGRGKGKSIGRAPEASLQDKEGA
quantity-name: EC50

Req: Give me measured EC50, please, for this molecule: CC1=CCC[C@H]1NC(=O)Nc1ccc(Cl)c(S(=O)(=O)[C@@]2(C)CCOC2)c1O
Resp: > 10 µM

---

assay: Volume of distribution at steady state in Wistar rat at 1.01 mg/kg, iv measured up to 4 hrs post dose; type: ADME, organism-based; details: in vivo, read-out: Vdss
quantity-name: Vd
Record the result as a number with its unit.

Req: Give me measured Vd, please, for this compound: CC1=CCC[C@H]1NC(=O)Nc1ccc(Cl)c(S(=O)(=O)C(C)(C)CF)c1O
Resp: 2.2 L/kg

---

target: C-X-C chemokine receptor type 4 (Homo sapiens, UniProt P61073); assay: Agonist activity at CXCR4 (unknown origin)
Sequence (P61073 whole entry): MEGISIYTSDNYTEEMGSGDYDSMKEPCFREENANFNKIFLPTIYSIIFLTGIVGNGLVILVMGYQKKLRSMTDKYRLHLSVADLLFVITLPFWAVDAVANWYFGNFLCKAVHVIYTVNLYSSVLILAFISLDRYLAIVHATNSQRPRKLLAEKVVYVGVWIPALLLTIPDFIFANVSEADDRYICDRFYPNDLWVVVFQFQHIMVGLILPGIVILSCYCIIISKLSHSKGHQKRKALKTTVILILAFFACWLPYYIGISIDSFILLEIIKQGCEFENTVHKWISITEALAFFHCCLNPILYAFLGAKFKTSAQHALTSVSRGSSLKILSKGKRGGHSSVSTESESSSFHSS
pEC50: −log10 of the molar value.
quantity-name: pEC50

Req: Provide pEC50, recorded with C-X-C chemokine receptor type 4 (Homo sapiens, UniProt P61073), of CC1=CCC[C@H]1NC(=O)Nc1ccc(Cl)c(S(=O)(=O)[C@@]2(C)CCOC2)c1O
Resp: < 5.00

---

target: C-C chemokine receptor type 8 (Homo sapiens)
Sequence (P51685 whole entry): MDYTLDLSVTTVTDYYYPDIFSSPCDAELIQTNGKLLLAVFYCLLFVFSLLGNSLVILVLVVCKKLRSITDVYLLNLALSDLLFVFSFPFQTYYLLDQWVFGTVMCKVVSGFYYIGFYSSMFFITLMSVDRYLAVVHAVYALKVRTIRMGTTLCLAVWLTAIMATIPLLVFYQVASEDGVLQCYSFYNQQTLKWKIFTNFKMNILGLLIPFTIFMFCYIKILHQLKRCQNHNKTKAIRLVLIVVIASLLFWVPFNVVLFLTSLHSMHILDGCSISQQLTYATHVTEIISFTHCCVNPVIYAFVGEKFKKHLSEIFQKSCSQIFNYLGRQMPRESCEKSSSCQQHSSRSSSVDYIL
pIC50: −log10 of the molar value.
quantity-name: pIC50

Req: Provide pIC50, recorded with C-C chemokine receptor type 8 (Homo sapiens), of CC1=CCC[C@H]1NC(=O)Nc1ccc(Cl)c(S(=O)(=O)[C@@]2(C)CCOC2)c1O
Resp: < 5.00

---

molecular target: UniProtKB P25025; test: Antagonist activity at CXCR2 in human whole blood assessed as inhibition of GROalpha-stimulated CD11b upregulation preincubated for 15 mins followed by GROalpha stimulation measured after 15 mins by FITC-staining based FACS analysis
Sequence (P25025 whole entry): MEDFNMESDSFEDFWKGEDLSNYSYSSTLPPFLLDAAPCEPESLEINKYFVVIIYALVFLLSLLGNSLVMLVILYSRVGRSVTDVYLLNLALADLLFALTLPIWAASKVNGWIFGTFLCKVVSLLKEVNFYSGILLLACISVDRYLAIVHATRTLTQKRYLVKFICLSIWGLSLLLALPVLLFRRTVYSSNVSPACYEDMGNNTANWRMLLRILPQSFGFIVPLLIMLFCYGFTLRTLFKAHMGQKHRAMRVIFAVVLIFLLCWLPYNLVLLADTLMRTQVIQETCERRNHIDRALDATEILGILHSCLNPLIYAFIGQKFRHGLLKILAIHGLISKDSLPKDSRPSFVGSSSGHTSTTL
Rule: measured IC50 below 200 nM gets rule met; anything equal to or greater than 200 nM gets rule not met.

compound: CC1=CCC[C@H]1NC(=O)Nc1ccc(C#N)c(S(=O)(=O)C(C)(C)C)c1O
qualitative-label: rule met

Req: Threshold test, IC50 < 200 nM: CC1=CCC[C@H]1NC(=O)Nc1ccc(Cl)c(S(=O)(=O)C(C)(F)F)c1O
Resp: rule not met

Req: Threshold test, IC50 < 200 nM: CC1=CCC[C@H]1NC(=O)Nc1ccc(Cl)c(S(=O)(=O)C2(C)CCOC2)c1O (some centres not stated)
Resp: rule met

Req: Threshold test, IC50 < 200 nM: CC1=CCC[C@H]1NC(=O)Nc1ccc(C#N)c(S(=O)(=O)C(C)(C)CC(F)(F)F)c1O
Resp: rule not met

Req: Threshold test, IC50 < 200 nM: CC1=CCC[C@H]1NC(=O)Nc1ccc(Cl)c(S(=O)(=O)C2CCCOC2)c1O (some centres not stated)
Resp: rule not met

Req: Threshold test, IC50 < 200 nM: CC1=CCC[C@H]1NC(=O)Nc1ccc(Cl)c(S(=O)(=O)[C@]2(C)CCOC2)c1O
Resp: rule met

---

experiment: Volume of distribution at steady state in dog at 0.85 mg/kg, iv measured up to 4 hrs post dose; assay type: ADME, organism-based, Canis lupus familiaris; conditions: in vivo, read-out: Vdss
quantity-name: Vd (L/kg)
Just the number please, in L/kg, no unit attached.

Req: Give me measured Vd, please, for this molecule: CC1=CCC[C@H]1NC(=O)Nc1ccc(Cl)c(S(=O)(=O)[C@@]2(C)CCOC2)c1O
Resp: 0.88

---

molecular target: Atypical chemokine receptor 3 (Homo sapiens, UniProt P25106); experiment: Antagonist activity at CXCR7 (unknown origin)
Sequence (P25106 whole entry): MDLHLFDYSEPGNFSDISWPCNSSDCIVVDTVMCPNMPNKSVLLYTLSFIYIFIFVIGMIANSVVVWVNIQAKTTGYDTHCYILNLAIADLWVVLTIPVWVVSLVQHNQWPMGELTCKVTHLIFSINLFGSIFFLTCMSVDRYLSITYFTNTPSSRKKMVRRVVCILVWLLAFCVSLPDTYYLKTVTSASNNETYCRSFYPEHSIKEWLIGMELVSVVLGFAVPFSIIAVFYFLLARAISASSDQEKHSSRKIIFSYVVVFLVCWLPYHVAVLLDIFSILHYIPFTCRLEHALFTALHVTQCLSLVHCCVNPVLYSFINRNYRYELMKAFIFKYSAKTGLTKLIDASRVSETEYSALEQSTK
quantity-name: IC50

Req: Give me measured IC50, please, for this compound: CC1=CCC[C@H]1NC(=O)Nc1ccc(Cl)c(S(=O)(=O)[C@@]2(C)CCOC2)c1O
Resp: > 10 µM

---

experiment: Cmax in Wistar rat at 2.38 mg/kg, po measured up to 4 hrs post dose; type: ADME, organism-based; set-up: dose 2.38 mg/kg, route oral; conditions: in vivo
quantity-name: Cmax
Record the result as a number with its unit.

Req: Give me measured Cmax, please, for this molecule: CC1=CCC[C@H]1NC(=O)Nc1ccc(Cl)c(S(=O)(=O)C(C)(C)CF)c1O
Resp: 0.292 µg/mL
